# assayed target: Hu-Asp2 (Homo sapiens, UniProt P56817)
# Construct: made in house; host or cells: High Five insect cells
# Sequence (P56817 46-501): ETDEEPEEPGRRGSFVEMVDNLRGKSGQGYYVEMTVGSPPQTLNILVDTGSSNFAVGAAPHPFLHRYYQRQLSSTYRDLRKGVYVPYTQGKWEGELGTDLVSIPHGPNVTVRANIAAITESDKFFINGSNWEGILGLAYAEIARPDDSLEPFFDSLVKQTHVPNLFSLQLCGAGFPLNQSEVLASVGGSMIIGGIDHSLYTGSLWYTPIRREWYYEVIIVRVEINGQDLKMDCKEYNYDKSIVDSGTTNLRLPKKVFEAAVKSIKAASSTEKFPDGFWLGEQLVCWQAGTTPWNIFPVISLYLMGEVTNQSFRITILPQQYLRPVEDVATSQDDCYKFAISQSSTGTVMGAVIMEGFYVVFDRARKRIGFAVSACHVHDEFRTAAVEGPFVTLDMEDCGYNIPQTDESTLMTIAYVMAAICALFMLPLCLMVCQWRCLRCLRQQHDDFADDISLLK
# assay summary: Hu-Asp2 peptide substrate cleavage assay (HPLC quantitation of cleavage products)
# Format: biochemical
# particulars: Table 3; 200 nM enzyme, 200 μM substrate, 300 mM Na-acetate, 4% DMSO, pH 4.5, 37° C., 4 hr; APP-Sw = 100
Would you kindly list Relative rate of Cleavage for each of these substances?
Give bare numbers.

1. KTISL- ↓-DVEPS (KTISLDVEPS) [Peptide 6] = 69.0
2. KTINL-↓-EVEPS (KTINLEVEPS) [Peptide 2] = 92.0
3. KTITL-↓-EVEPS (KTITLEVEPS) [Ubiquitin (Pep 1)] = 13.1
4. KTISL- ↓-DVDPS (KTISLDVDPS) [Peptide 7] = 20.5

Moving on to another substance below.
Using known records, supply Relative rate of Cleavage for SEVNL-DAEFR (SEVNLDAEFR) [APP-Sw, reference compound]
100
